These data points were gathered from patent US5332759A.

test system: annular sections of the basilar artery of dogs; assay: In vitro vasoconstrictive activity in the basilar artery of dogs; settings: dog basilar artery, endothelium removed, isometric contractions; read-out: EC50, contraction of basilar artery sections
pEC50: −log10 of the molar value.
metric: pEC50

Recorded pEC50 for CNS(=O)(=O)Cc1ccc2cccc(CCN(C)C)c2c1 , please? ~6.00
